# system_name: Protein mono-ADP-ribosyltransferase PARP10 (Homo sapiens, UniProt Q53GL7, L926G)
# Sequence (Q53GL7 whole entry L926G): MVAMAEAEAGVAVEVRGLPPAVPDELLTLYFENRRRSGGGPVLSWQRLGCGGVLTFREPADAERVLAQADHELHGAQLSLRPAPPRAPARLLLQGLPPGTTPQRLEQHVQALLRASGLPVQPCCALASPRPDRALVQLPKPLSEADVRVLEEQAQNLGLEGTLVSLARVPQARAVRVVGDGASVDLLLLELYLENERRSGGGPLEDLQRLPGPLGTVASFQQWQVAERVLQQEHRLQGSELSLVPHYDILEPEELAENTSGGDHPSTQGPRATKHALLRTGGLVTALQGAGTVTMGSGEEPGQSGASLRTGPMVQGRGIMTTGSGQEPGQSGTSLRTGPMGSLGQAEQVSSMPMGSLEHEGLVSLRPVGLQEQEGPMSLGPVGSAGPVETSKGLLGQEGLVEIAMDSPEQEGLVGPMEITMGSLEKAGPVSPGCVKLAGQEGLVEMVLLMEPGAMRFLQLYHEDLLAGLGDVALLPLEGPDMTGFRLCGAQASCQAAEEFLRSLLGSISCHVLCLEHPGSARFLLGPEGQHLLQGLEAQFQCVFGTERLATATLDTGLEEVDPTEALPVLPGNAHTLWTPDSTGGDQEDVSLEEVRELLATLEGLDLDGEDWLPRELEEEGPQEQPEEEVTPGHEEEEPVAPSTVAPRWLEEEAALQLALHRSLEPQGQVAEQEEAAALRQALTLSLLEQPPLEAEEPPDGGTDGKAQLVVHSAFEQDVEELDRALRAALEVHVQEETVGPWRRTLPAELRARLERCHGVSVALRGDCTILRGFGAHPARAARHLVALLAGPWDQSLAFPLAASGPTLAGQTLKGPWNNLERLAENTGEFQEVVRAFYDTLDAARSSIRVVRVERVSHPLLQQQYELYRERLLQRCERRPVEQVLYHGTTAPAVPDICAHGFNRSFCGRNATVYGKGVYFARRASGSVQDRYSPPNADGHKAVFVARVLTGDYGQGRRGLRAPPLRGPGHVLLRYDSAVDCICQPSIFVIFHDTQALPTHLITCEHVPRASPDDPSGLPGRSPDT
# assay_summary: Inhibition of PARP-10 L926G mutant (unknown origin) mediated ADP-ribosylation of SRPK2 by fluorescence analysis using 3 uM SRPK2 as a substrate
Kindly supply the reported IC50 values for the records listed here.
Answers are plain numbers, in µM.

- compound: "O=C1NCCc2ccc(C(F)(F)F)cc21"
  endpoint_unit: "µM"
  IC50: 65.5

Please supply IC50 for each of the following items, keeping them in order.
1. Cc1ccc2c(c1)C(=O)NCC2
2. O=C1NCCc2ccc(Br)cc21
3. COc1ccc2c(c1)C(=O)NCC2
4. O=C1NCCc2ccc(Cl)cc21

Output:
1. 112
2. 8.6
3. 172
4. 16.2

These data points were gathered from ChEMBL document CHEMBL3627698.
